Recorded values, source the supplement of paper PMC4862054.

# Test system: CAL-85-1
# Measurement Parameters: 72 h
Assay Readout: EC50, CellTiter-Glo (nM)
Quick note: give the figure in nM, leave out the unit.

Below, 4 compounds whose answers are already recorded.
| Compound | EC50, CellTiter-Glo / nM |
| --- | --- |
| O=C(Nc1ccncc1)C(=O)c1cn(Cc2ccc(Cl)cc2)c2ccccc12 [Indibulin] | 169 |
| CO[C@H]1C[C@@H]2CC[C@@H](C)[C@@](O)(O2)C(=O)C(=O)N2CCCC[C@H]2C(=O)O[C@H]([C@H](C)C[C@@H]2CC[C@@H](OP(C)(C)=O)[C@H](OC)C2)CC(=O)[C@H](C)/C=C(\C)[C@@H](O)[C@@H](OC)C(=O)[C@H](C)C[C@H](C)/C=C/C=C/C=C/1C [Ridaforolimus] | 0.57 |
| COCC[n+]1c2c(n(Cc3cnccn3)c1C)C(=O)c1ccccc1C2=O [YM155] | 5.5 |
| Cc1[nH]c2ccccc2c1CCNCc1ccc(/C=C/C(=O)NO)cc1 [Panobinostat] | 33.4 |

Read the next record carefully.
Query: Recorded EC50, CellTiter-Glo of CC(C)C[C@@H](C(=O)N[C@H](C(=O)OC1CCCC1)c1ccccc1)[C@H](O)C(=O)NO [Tosedostat] , please.
Result: 182

====

# System: HDQ-P1
# Measurement Parameters: 72 h
Quick list: EC50, CellTiter-Glo per entry.
The figure you give is taken to be in µM; do not add the unit.

| Compound | Tested Target | Unit Symbol | EC50, CellTiter-Glo |
| --- | --- | --- | --- |
| Nc1cc(C(F)(F)F)c(-c2cc(N3CCOCC3)nc(N3CCOCC3)n2)cn1 [Buparlisib] | HDQ-P1 | µM | 1 |
| c1ccc2c(CCNc3ccc(Nc4ccncc4)cc3)c[nH]c2c1 [Serdemetan] | HDQ-P1 | µM | 1.23 |
| Cc1cc(Nc2cc(CN3CCOCC3)c3nc(C)c(Cc4ccc(Cl)cc4F)n3n2)n[nH]1 [Gandotinib] | HDQ-P1 | µM | 1.93 |

Let us move to another entry and its EC50, CellTiter-Glo.
Query: Give its EC50, CellTiter-Glo value. Item: O=C(/C=C/c1cccc(S(=O)(=O)Nc2ccccc2)c1)NO [Belinostat]
Result: 2.83

====

# System: MDA-MB-436
# Method Description: normalised response (% of control), CellTiter-Glo; higher = more viable cells (100 = DMSO, 0 = benzethonium chloride kill control)
# Measurement Parameters: incubation time: 72 h
Item-by-item account of normalised response
Report the figure along with its unit, number first.

| Molecule | Tested Target | normalised response |
| --- | --- | --- |
| CC(C)C[C@@H](C(=O)N[C@H](C(=O)OC1CCCC1)c1ccccc1)[C@H](O)C(=O)NO [Tosedostat] (1 nM) | MDA-MB-436 | 103% |

Query: If you can, please state the reported normalised response value of C=C1C[C@@H]2[C@H](CC[C@]3(C)C(=O)CC[C@@H]23)[C@@]2(C)C=CC(=O)C=C12 [Exemestane] (10 nM) .
Result: 104%

====

// drug sensitivity score lookup, one value per entry
# Tested on: CAL-85-1
# Method Description: drug sensitivity score (DSS), CellTiter-Glo (DSS (AUC-based score)); higher = stronger drug effect (viability inhibition or cytotoxicity); extreme values may be limits of the assay
# Measurement Parameters: incubation time: 72 h

| Molecular String | drug sensitivity score |
| --- | --- |
| CNC(=O)c1cccc(-c2ccc3c(N4CCOC[C@@H]4C)nc(N4CCOC[C@@H]4C)nc3n2)c1 | 13.2 |
| CC(C)C[C@@H](C(=O)N[C@H](C(=O)OC1CCCC1)c1ccccc1)[C@H](O)C(=O)NO | 12.7 |
| Cc1ccc(NC(=O)c2ccc(CN3CCN(C)CC3)cc2)cc1Nc1nc(-c2cccnc2)cs1 | 0 |

Read the next record carefully.
Query: Hello, I am looking for reported drug sensitivity score with CAL-85-1 for `CN(C)CCOc1ccc(/C(=C(/CCCl)c2ccccc2)c2ccccc2)cc1` . Could you help?
Result: 0

====

# Test system: HCC1937
# Method Description: drug sensitivity score (DSS), CellTiter-Glo (DSS (AUC-based score)); higher = stronger drug effect (viability inhibition or cytotoxicity); extreme values may be limits of the assay
# Measurement Parameters: incubation time: 72 h
# label = satisfied if drug sensitivity score >= 2 else not satisfied

| Compound | Tested Target | Category Label |
| --- | --- | --- |
| COc1cc2ncnc(Nc3ccc(F)c(Cl)c3)c2cc1OCCCN1CCOCC1 [Gefitinib] | HCC1937 | satisfied |
| Cc1[nH]c2ccccc2c1CCNCc1ccc(/C=C/C(=O)NO)cc1 [Panobinostat] | HCC1937 | satisfied |
| CO[C@H]1C[C@@H]2CC[C@@H](C)[C@@](O)(O2)C(=O)C(=O)N2CCCC[C@H]2C(=O)O[C@H]([C@H](C)C[C@@H]2CC[C@@H](OP(C)(C)=O)[C@H](OC)C2)CC(=O)[C@H](C)/C=C(\C)[C@@H](O)[C@@H](OC)C(=O)[C@H](C)C[C@H](C)/C=C/C=C/C=C/1C [Ridaforolimus] | HCC1937 | satisfied |
| O=C(Nc1ccncc1)C(=O)c1cn(Cc2ccc(Cl)cc2)c2ccccc12 [Indibulin] | HCC1937 | satisfied |
| CNC(=O)c1ccc(N2C(=S)N(c3ccc(C#N)c(C(F)(F)F)c3)C(=O)C23CCC3)cc1F [RD162] | HCC1937 | not satisfied |

Query: Could you tell me if the measured drug sensitivity score of COCC1(CO)C(=O)C2CCN1CC2 (stereo not drawn) [Prima-1 Met] reaches 2 or more?
Result: not satisfied

Query: Tell me whether drug sensitivity score is at least 2 here: O=C(Nc1cccnc1)N1CCC(Cc2cccc(Oc3ccc(C(F)(F)F)cn3)c2)CC1 [PF-3845]
Result: not satisfied

Query: Answer whether drug sensitivity score of CNC(=O)c1ccc(N2C(=S)N(c3ccc(C#N)c(C(F)(F)F)c3)C(=O)C2(C)C)cc1F [Enzalutamide] is greater than or equal to 2.
Result: not satisfied

====

# System: CAL-51
# Method Description: normalised viability (% of control), CellTiter-Blue; higher = more viable cells (about 100 = DMSO control)
# Measurement Parameters: 3 nM; incubation time: 72 h
Catalogue of normalised viability values
Express it in %; write the number only.

Query: normalised viability; subject: Cc1ccc(NC(=O)c2ccc(CN3CCN(C)CC3)cc2)cc1Nc1nc(-c2cccnc2)cs1 [Masitinib]
Result: 106

Query: Dear colleague, I am looking for the recorded normalised viability of the following compound: c1ccc2c(CCNc3ccc(Nc4ccncc4)cc3)c[nH]c2c1 [Serdemetan]
Result: 118

Query: Entry under review: COc1cc2/c(=N/c3ccc(Br)cc3F)nc[nH]c2cc1OCC1CCN(C)CC1 [Vandetanib] . Reported normalised viability?
Result: 105

Query: Recorded normalised viability for CO[C@H]1C[C@@H]2CC[C@@H](C)[C@@](O)(O2)C(=O)C(=O)N2CCCC[C@H]2C(=O)O[C@H]([C@H](C)C[C@@H]2CC[C@@H](OP(C)(C)=O)[C@H](OC)C2)CC(=O)[C@H](C)/C=C(\C)[C@@H](O)[C@@H](OC)C(=O)[C@H](C)C[C@H](C)/C=C/C=C/C=C/1C [Ridaforolimus] , please?
Result: 56.2

Query: // normalised viability lookup, key: `Cc1cc(Nc2cc(CN3CCOCC3)c3nc(C)c(Cc4ccc(Cl)cc4F)n3n2)n[nH]1`
Result: 97.1

Query: I have this compound here, COCC[n+]1c2c(n(Cc3cnccn3)c1C)C(=O)c1ccccc1C2=O [YM155] , and I need its recorded normalised viability.
Result: 94.6

Query: Fill in the blank: the reported normalised viability of O=C(Nc1cccnc1)N1CCC(Cc2cccc(Oc3ccc(C(F)(F)F)cn3)c2)CC1 [PF-3845] is ____.
Result: 109

Query: Which normalised viability reading was recorded for the compound CNC(=O)c1cc(Oc2ccc(NC(=O)Nc3ccc(Cl)c(C(F)(F)F)c3)c(F)c2)ccn1 [Regorafenib] ?
Result: 106

====

normalised response overview
# System: MDA-MB-436
# Method Description: normalised response (% of control), CellTiter-Glo; higher = more viable cells (100 = DMSO, 0 = benzethonium chloride kill control)
# Measurement Parameters: incubation time: 72 h
# value in %; strip the unit string

Here is how some compounds turned out for normalised response.
| Compound | normalised response / % |
| --- | --- |
| CCn1c(-c2nonc2N)nc2cnc(Oc3cccc(NC(=O)c4ccc(OCCN5CCOCC5)cc4)c3)cc21 (100 nM) | 103 |
| CNC(=O)c1cc(Oc2ccc(NC(=O)Nc3ccc(Cl)c(C(F)(F)F)c3)c(F)c2)ccn1 [Regorafenib] (100 nM) | 106 |
| COc1cc(OC2CCN(C)CC2)ccc1Nc1ncc2c(n1)n(C1CCCC1)c(=O)n2C [AZ 3146] (100 nM) | 104 |

Query: Please give the measured normalised response for this compound: COc1cc(O)c2c(c1)/C=C/C[C@H](O)[C@H](O)C(=O)/C=C\C[C@H](C)OC2=O [(5Z)-7-Oxozeaenol] (100 nM)
Result: 104
